Values were extracted from patent US5384417A.

TARGET OR SYSTEM: β-Glucuronidase (Homo sapiens, UniProt P08236)
Construct: Human liver glycosidases were assayed; from tissue; host or cells: human liver
Sequence (P08236 23-633 limits assumed): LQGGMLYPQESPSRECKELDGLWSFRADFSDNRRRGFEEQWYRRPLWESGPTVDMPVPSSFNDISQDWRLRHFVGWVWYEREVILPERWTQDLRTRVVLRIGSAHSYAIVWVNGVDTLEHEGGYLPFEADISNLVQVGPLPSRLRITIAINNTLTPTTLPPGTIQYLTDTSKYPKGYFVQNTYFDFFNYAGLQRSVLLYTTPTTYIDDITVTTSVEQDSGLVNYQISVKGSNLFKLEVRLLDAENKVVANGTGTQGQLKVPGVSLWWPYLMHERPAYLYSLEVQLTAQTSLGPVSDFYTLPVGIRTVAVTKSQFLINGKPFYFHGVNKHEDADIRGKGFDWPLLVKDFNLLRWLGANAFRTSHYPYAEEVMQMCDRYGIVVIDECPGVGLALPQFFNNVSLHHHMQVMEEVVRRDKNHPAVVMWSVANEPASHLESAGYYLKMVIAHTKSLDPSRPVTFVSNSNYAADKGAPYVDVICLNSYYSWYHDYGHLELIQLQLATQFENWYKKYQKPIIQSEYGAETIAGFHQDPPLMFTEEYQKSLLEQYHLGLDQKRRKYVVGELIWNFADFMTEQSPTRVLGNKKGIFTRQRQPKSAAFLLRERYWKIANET
TEST METHOD NOTES: inhibition of human liver β-glucuronidase
Format: biochemical
CONDITION SET: 1 mM inhibitor; read-out: % Inhibition of Glycosidase Activity, β-Glucuronidase
QUANTITY NAME: inhibition at 1000 µM (%)
Give the value in % but do not write % after it.

Challenge: For the molecule `OC[C@@H](O)[C@H]1NC[C@@H](O)[C@H]1O` , what inhibition at 1000 µM is on record?
Response given: 9

Challenge: Fill blank: measured inhibition at 1000 µM of the molecule OC[C@H]1N[C@H](CO)[C@@H](O)C(O)[C@@H]1O (stereo partly shown) is ____.
Response given: 0

Challenge: Fill in the blank: the reported inhibition at 1000 µM of `OC[C@@H](O)[C@H]1N[C@H](CO)[C@@H](O)[C@H]1O` is ____.
Response given: 0

Challenge: inhibition at 1000 µM for `NC[C@H]1O[C@H]([C@H](O)CO)[C@H](O)[C@@H]1O` ?
Response given: 7

---

TARGET OR SYSTEM: β-Galactosidase (Homo sapiens)
Construct: Human liver glycosidases were assayed; from tissue; host or cells: human liver
Sequence (P16278 29-677): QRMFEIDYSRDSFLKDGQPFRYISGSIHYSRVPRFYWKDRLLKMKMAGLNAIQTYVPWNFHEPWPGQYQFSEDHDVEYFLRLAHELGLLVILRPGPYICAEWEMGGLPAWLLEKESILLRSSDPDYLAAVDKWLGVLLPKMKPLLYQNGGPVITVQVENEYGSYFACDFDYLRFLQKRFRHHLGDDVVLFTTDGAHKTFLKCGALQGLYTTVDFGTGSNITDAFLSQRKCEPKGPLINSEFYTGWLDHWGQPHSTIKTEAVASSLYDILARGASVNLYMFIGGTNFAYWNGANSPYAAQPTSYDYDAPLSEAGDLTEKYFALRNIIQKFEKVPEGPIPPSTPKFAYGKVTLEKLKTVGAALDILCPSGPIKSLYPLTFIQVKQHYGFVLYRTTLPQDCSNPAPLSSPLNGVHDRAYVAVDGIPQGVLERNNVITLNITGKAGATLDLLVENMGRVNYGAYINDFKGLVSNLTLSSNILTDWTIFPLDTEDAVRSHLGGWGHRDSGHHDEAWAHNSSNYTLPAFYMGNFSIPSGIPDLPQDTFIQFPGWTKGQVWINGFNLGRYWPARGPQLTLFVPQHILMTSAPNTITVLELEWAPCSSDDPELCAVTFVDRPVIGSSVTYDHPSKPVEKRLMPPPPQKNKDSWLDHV
TEST METHOD NOTES: inhibition of human liver β-galactosidase
Assay type: biochemical
CONDITION SET: 1 mM inhibitor; read-out: % Inhibition of Glycosidase Activity, β-Galactosidase
Exercise: state measured inhibition at 1000 µM for each of the compounds provided.
Give your result in % as a bare value.

Challenge: Would you mind telling me what inhibition at 1000 µM value was observed for OC[C@H]1N[C@H](CO)[C@@H](O)C(O)[C@@H]1O (stereo partly drawn) ?
Response given: 0

Challenge: Which inhibition at 1000 µM reading was recorded for the compound `OC[C@@H](O)[C@H]1N[C@H](CO)[C@@H](O)[C@H]1O` ?
Response given: 35

Challenge: Fill in: inhibition at 1000 µM of `NC[C@H]1O[C@H]([C@H](O)CO)[C@H](O)[C@@H]1O` is ___
Response given: 0
